- protocolNotes: NFAT Signaling Pathway (AID 444);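 further: carbachol stimulus at about its EC50 of 1 µM final; on the % scale 0 is the no-effect control and ±100 the full control effect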
- appliedConditions: Jurkat NFAT-bla M1, carbachol, beta-lactamase ratio, 5 h; at 17.2 µM (top of the series)
Inconclusive results are not listed. The source made the active and inactive calls. The call rests on the fitted dose curve; in most records, active means well fitted curve in either direction with a large enough effect (not every such curve was filed as active); inconclusive means small, poorly fitted or top-dose-only effect, or another doubt; inactive means flat fitted curve, though single readings scatter.
activity change, negative = inhibition by entry:

{"molecule": "C[C@]12CCC(=O)C=C1CC[C@@H]1[C@@H]2[C@@H](O)C[C@@]2(C)[C@H]1CC[C@]2(O)C(=O)COC(=O)CCC(=O)O", "activity change, negative = inhibition": "10.9% (inactive)"}
{"molecule": "O=C(CCCCC(=O)Nc1c(I)cc(I)c(C(=O)O)c1I)Nc1c(I)cc(I)c(C(=O)O)c1I", "activity change, negative = inhibition": "0.68% (inactive)"}
{"molecule": "CC1(C)O[C@@H]2C[C@H]3[C@@H]4C[C@H](F)C5=CC(=O)C=C[C@]5(C)[C@@]4(F)[C@@H](O)C[C@]3(C)[C@]2(C(=O)CO)O1", "activity change, negative = inhibition": "22.4% (inactive)"}

Incoming: Dear colleague, please send me the reported activity change, negative = inhibition for CCN(CC)CCOc1ccc(/C(=C(\Cl)c2ccccc2)c2ccccc2)cc1 when you can.
Outgoing: -12.4% (inactive)

Incoming: Dear colleague, please send me the reported activity change, negative = inhibition for CC(=O)OCC[N+](C)(C)C when you can.
Outgoing: 122% [activator] (active)

Incoming: Dear colleague, please send me the reported activity change, negative = inhibition for C[C@H]1C[C@@H]2[C@H]([C@@H](O)C[C@@]3(C)[C@H]2CC[C@]3(O)C(=O)CO)[C@@]2(C)C=CC(=O)C=C12 when you can.
Outgoing: 17.5% (inactive)

Incoming: Dear colleague, please send me the reported activity change, negative = inhibition for CCOC(=O)NNc1nncc2ccccc12 when you can.
Outgoing: 1.79% (inactive)

Incoming: Dear colleague, please send me the reported activity change, negative = inhibition for CN1CCCN(C(c2ccccc2)c2ccc(Cl)cc2)CC1 (stereo not drawn) when you can.
Outgoing: -95.8% (active)

* * *

- Test system: MKL-1
- protocolNotes: qHTS assay to identify novel small-molecules to repurpose for Merkel cell carcinoma treatment (AID 1296009); further: nearly all actives have a fitted effect of over 60% in size
- appliedConditions: MCC and control cell lines, CellTiter-Glo viability, 72 h; series mostly up to 46 µM
Inconclusive results are not listed. Active and inactive are the calls of the source. Calls come from the whole dose curve; as a rule, active = well fitted inhibition curve with a large enough effect; inconclusive = small, poorly fitted or top-dose-only effect; inactive = flat fitted curve, though single readings scatter.
Output constraint: value belongs to 1 (active), -1 (inactive)

For orientation, consider the following solved cases.
{"molecule": "O=C(CCCCCCCCC#CI)Oc1ccccc1", "measurementTarget": "MKL-1", "group": 1}
{"molecule": "CCCCC(O)/C=C(C)/C=C/C=C/C(=O)N1CCCC1=O (stereo unspecified)", "measurementTarget": "MKL-1", "group": -1}

Incoming: Any idea what this test logged for CCN(CC)CC(=O)Nc1c(C)cccc1C(=O)OC ?
Outgoing: -1

Incoming: Any idea what this test logged for O=C(Nc1ccc(S(=O)(=O)N2CCOCC2)cc1)c1cc(Cl)ccc1NS(=O)(=O)c1ccc(Cl)s1 ?
Outgoing: -1

Incoming: Any idea what this test logged for COC(=O)c1c(Cl)c(Cl)c(C(=O)OC)c(Cl)c1Cl ?
Outgoing: -1

Incoming: Any idea what this test logged for O=C(Oc1ccccc1)c1cccc(C(=O)Oc2ccccc2)c1 ?
Outgoing: -1

* * *

- measurementTarget: Voltage-gated inwardly rectifying potassium channel KCNH2 (Homo sapiens)
- protocolNotes: qHTS Assay for Small Molecule Inhibitors of the Human hERG Channel Activity (AID 588834);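 further: lower thallium flux fluorescence means stronger hERG block; nearly all actives have a fitted effect of over 50% in size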; further: potency means the concentration at half of the fitted maximal effect
- appliedConditions: U2OS BacMam hERG, FluxOR thallium flux fluorescence; series mostly up to 92.2 µM
Records with an inconclusive call do not appear. Activity calls are given as the source filed them. Calls come from the whole dose curve; as a rule, active = well fitted inhibition curve with a large enough effect; inconclusive = small, poorly fitted or top-dose-only effect; inactive = flat fitted curve, though single readings scatter.
endpointLabel: Potency

Examples from the recorded data:
{"compound": "COc1cccc2c1[C@@H]1CN(CCCCn3c(=O)[nH]c4c(sc5ncc(-c6ccccc6)nc54)c3=O)C[C@@H]1CO2", "measurementTarget": "Voltage-gated inwardly rectifying potassium channel KCNH2 (Homo sapiens)", "Potency": "5.01 µM (active)"}
{"compound": "Brc1ccc([C@H]2CN3CCSC3=N2)cc1", "measurementTarget": "Voltage-gated inwardly rectifying potassium channel KCNH2 (Homo sapiens)", "Potency": "11.2 µM (active)"}
{"compound": "OCc1c[nH]c2ccccc12", "measurementTarget": "Voltage-gated inwardly rectifying potassium channel KCNH2 (Homo sapiens)", "Potency": "inactive"}
{"compound": "CC(=O)OC/C=C(C)/C=C/C=C(C)/C=C/C1=C(C)CCCC1(C)C", "measurementTarget": "Voltage-gated inwardly rectifying potassium channel KCNH2 (Homo sapiens)", "Potency": "inactive"}

Incoming: Dear colleague, please send me the reported Potency for CC(C)(C)c1ccc(O)c(O)c1 when you can.
Outgoing: inactive

Incoming: Dear colleague, please send me the reported Potency for CCCCCCCCCCCCCCCC[N+](C)(C)Cc1ccccc1 when you can.
Outgoing: 22.4 µM (active)

Incoming: Dear colleague, please send me the reported Potency for CCCCC(CC)COC(=O)c1ccccc1C(=O)O (stereo not drawn) when you can.
Outgoing: inactive

Incoming: Dear colleague, please send me the reported Potency for COc1ccccc1N1CCN(CCN2C(=O)CC3(CCCC3)CC2=O)CC1 when you can.
Outgoing: 1.12 µM (active)

Incoming: Dear colleague, please send me the reported Potency for Oc1ccccc1 when you can.
Outgoing: inactive

Incoming: Dear colleague, please send me the reported Potency for Nc1ncnc2nc[nH]c12 when you can.
Outgoing: inactive

Incoming: Dear colleague, please send me the reported Potency for CC(C)N(CCC(=O)c1ccc2ccccc2c1)Cc1ccccc1 when you can.
Outgoing: 3.16 µM (active)

Incoming: Dear colleague, please send me the reported Potency for COc1cc(C=O)ccc1O when you can.
Outgoing: inactive

Incoming: Dear colleague, please send me the reported Potency for c1ccc2occc2c1 when you can.
Outgoing: inactive

Incoming: Dear colleague, please send me the reported Potency for CN1CCC(Nc2ncc3ncnc(Nc4ccc(F)c(Cl)c4)c3n2)CC1 when you can.
Outgoing: 12.6 µM (active)

Incoming: Dear colleague, please send me the reported Potency for C1=CC2C3C=CC(C3)C2C1 (stereo not drawn) when you can.
Outgoing: inactive

Incoming: Dear colleague, please send me the reported Potency for O=[N+]([O-])c1ccc(-c2nc(-c3ccc(F)cc3)c(-c3ccncc3)[nH]2)cc1 when you can.
Outgoing: 8.91 µM (active)

Incoming: Dear colleague, please send me the reported Potency for Cn1cnc2c(NCc3ccccc3)nc(NCCO)nc21 when you can.
Outgoing: inactive

Incoming: Dear colleague, please send me the reported Potency for CN(C)c1cc2c(Nc3ccc4c(cnn4Cc4ccccc4)c3)ncnc2cn1 when you can.
Outgoing: inactive
